# Tested on: Escherichia coli TOP10
# Method notes: shrunken log2 fold change of peptide-encoding DNA abundance (4.5 h post-induction vs induction); higher = less antimicrobial activity (less host growth inhibition)
# Applied conditions: time post-induction: 4.5 h; library: site-saturation at positions 5, 18, 19, 20
Tag: Y if measured shrunken log2 fold change is not below -0.006, N if it is.

In [3]: df
Out[3]:
             sequence_data     experimental_target  assigned_category
0  RRIRSRPPRLPRPRPRPWFHPRP  Escherichia coli TOP10                  N

Could you please find out whether RRIRTRPPRLPRPRPRPTPEPRP has shrunken log2 fold change that meets -0.006 or exceeds it?
Y

Could you please find out whether RRIRMRPPRLPRPRPRPWMFPRP has shrunken log2 fold change that meets -0.006 or exceeds it?
Y

Could you please find out whether RRIRDRPPRLPRPRPRPIREPRP has shrunken log2 fold change that meets -0.006 or exceeds it?
Y

Could you please find out whether RRIRNRPPRLPRPRPRPKIYPRP has shrunken log2 fold change that meets -0.006 or exceeds it?
N

Could you please find out whether RRIRFRPPRLPRPRPRPTRYPRP has shrunken log2 fold change that meets -0.006 or exceeds it?
Y

----------
# System: Escherichia coli TOP10
# Method notes: shrunken log2 fold change of peptide-encoding DNA abundance (4.5 h post-induction vs induction); higher = less antimicrobial activity (less host growth inhibition)
# Applied conditions: time post-induction: 4.5 h; library: site-saturation at positions 5, 18, 19, 20
Tag: yes if measured shrunken log2 fold change is not below -0.5, no if it is.

>>> print(df.to_string())
             sequence_data  assigned_category
0  RRIRCRPPRLPRPRPRPHEYPRP                yes

Now look at this one.
Could you please find out whether RRIRPRPPRLPRPRPRPSHYPRP has shrunken log2 fold change that meets -0.5 or exceeds it?
yes

----------
# Tested on: Escherichia coli TOP10
# Method notes: shrunken log2 fold change of peptide-encoding DNA abundance (4.5 h post-induction vs induction); higher = less antimicrobial activity (less host growth inhibition)
# Applied conditions: time post-induction: 4.5 h; library: site-saturation at positions 5, 18, 19, 20
Examples of sequences with documented shrunken log2 fold change follow.
# print the numeric value only

In [3]: df
Out[3]:
             sequence_data  result_value
0  RRIRSRPPRLPRPRPRPNALPRP       -0.0803
1  RRIRMRPPRLPRPRPRPLFSPRP        0.0255
2  RRIRDRPPRLPRPRPRPQNHPRP         -0.34

Consider the record given below.
Entry RRIRQRPPRLPRPRPRPQTRPRP : reported shrunken log2 fold change = ?
-0.0472

----------
# Test system: Escherichia coli TOP10
# Method notes: shrunken log2 fold change of peptide-encoding DNA abundance (4.5 h post-induction vs induction); higher = less antimicrobial activity (less host growth inhibition)
# Applied conditions: time post-induction: 4.5 h; library: site-saturation at positions 5, 18, 19, 20
Examples of sequences with documented shrunken log2 fold change follow.
# print the numeric value only

The cases that follow already have their shrunken log2 fold change on record.
>>> print(df.to_string())
             sequence_data         measured_parameter  result_value
0  RRIRCRPPRLPRPRPRPTYMPRP  shrunken log2 fold change        -0.432
1  RRIRGRPPRLPRPRPRPKEKPRP  shrunken log2 fold change        0.0377
2  RRIRIRPPRLPRPRPRPEYKPRP  shrunken log2 fold change        -0.978

Entry RRIRGRPPRLPRPRPRPWMYPRP : reported shrunken log2 fold change = ?
-0.0352

Entry RRIRRRPPRLPRPRPRPVLAPRP : reported shrunken log2 fold change = ?
0.83

Entry RRIRNRPPRLPRPRPRPAEAPRP : reported shrunken log2 fold change = ?
0.057

Entry RRIRYRPPRLPRPRPRPVEDPRP : reported shrunken log2 fold change = ?
-0.0671

----------
# Test system: Escherichia coli TOP10
# Method notes: shrunken log2 fold change of peptide-encoding DNA abundance (4.5 h post-induction vs induction); higher = less antimicrobial activity (less host growth inhibition)
# Applied conditions: time post-induction: 4.5 h; library: site-saturation at positions 5, 18, 19, 20
Examples of sequences with documented shrunken log2 fold change follow.
# print the numeric value only

>>> print(df.to_string())
             sequence_data     experimental_target         measured_parameter  result_value
0  RRIRSRPPRLPRPRPRPSRKPRP  Escherichia coli TOP10  shrunken log2 fold change       -0.0434
1  RRIRYRPPRLPRPRPRPEILPRP  Escherichia coli TOP10  shrunken log2 fold change        -0.288
2  RRIRKRPPRLPRPRPRPANVPRP  Escherichia coli TOP10  shrunken log2 fold change        -0.196
3  RRIRTRPPRLPRPRPRPLRNPRP  Escherichia coli TOP10  shrunken log2 fold change       -0.0969
4  RRIRFRPPRLPRPRPRPSWTPRP  Escherichia coli TOP10  shrunken log2 fold change        -0.561
5  RRIRWRPPRLPRPRPRPPVHPRP  Escherichia coli TOP10  shrunken log2 fold change        -0.221
6  RRIRSRPPRLPRPRPRPFHFPRP  Escherichia coli TOP10  shrunken log2 fold change        -0.308
7  RRIRNRPPRLPRPRPRPGYVPRP  Escherichia coli TOP10  shrunken log2 fold change        -0.077

Entry RRIRNRPPRLPRPRPRPFYKPRP : reported shrunken log2 fold change = ?
-0.575

Entry RRIRQRPPRLPRPRPRPMAQPRP : reported shrunken log2 fold change = ?
0.006

Entry RRIRERPPRLPRPRPRPHNYPRP : reported shrunken log2 fold change = ?
-0.612

Entry RRIRLRPPRLPRPRPRPKIDPRP : reported shrunken log2 fold change = ?
-0.042

Entry RRIRFRPPRLPRPRPRPFCRPRP : reported shrunken log2 fold change = ?
-0.316

Entry RRIRRRPPRLPRPRPRPAASPRP : reported shrunken log2 fold change = ?
0.38

----------
# System: Escherichia coli TOP10
# Method notes: shrunken log2 fold change of peptide-encoding DNA abundance (4.5 h post-induction vs induction); higher = less antimicrobial activity (less host growth inhibition)
# Applied conditions: time post-induction: 4.5 h; library: site-saturation at positions 5, 18, 19, 20
Tag: Satisfied if measured shrunken log2 fold change is not below -0.1, Not satisfied if it is.

             sequence_data  assigned_category
0  RRIRARPPRLPRPRPRPKTDPRP          Satisfied
1  RRIRYRPPRLPRPRPRPNGLPRP          Satisfied

Could you please find out whether RRIRARPPRLPRPRPRPVHDPRP has shrunken log2 fold change that meets -0.1 or exceeds it?
Satisfied

Could you please find out whether RRIRGRPPRLPRPRPRPNQQPRP has shrunken log2 fold change that meets -0.1 or exceeds it?
Satisfied

Could you please find out whether RRIRWRPPRLPRPRPRPALEPRP has shrunken log2 fold change that meets -0.1 or exceeds it?
Satisfied

Could you please find out whether RRIRMRPPRLPRPRPRPRSIPRP has shrunken log2 fold change that meets -0.1 or exceeds it?
Satisfied

Could you please find out whether RRIRKRPPRLPRPRPRPRRIPRP has shrunken log2 fold change that meets -0.1 or exceeds it?
Satisfied

Could you please find out whether RRIRFRPPRLPRPRPRPNEGPRP has shrunken log2 fold change that meets -0.1 or exceeds it?
Satisfied

----------
# Tested on: Escherichia coli TOP10;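 further: peptides expressed intracellularly from a pBAD plasmid library in pooled LB shake-flask culture, induced with 0.3% L-arabinose, DNA abundance read by NGS, three biological replicates, DESeq2 with apeglm shrinkage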
# Method notes: shrunken log2 fold change of peptide-encoding DNA abundance (4.5 h post-induction vs induction); higher = less antimicrobial activity (less host growth inhibition)
# Applied conditions: time post-induction: 4.5 h; library: site-saturation at positions 5, 18, 19, 20
Measured parameter: shrunken log2 fold change
# print the numeric value only

The cases that follow already have their shrunken log2 fold change on record.
>>> print(df.to_string())
             sequence_data         measured_parameter  result_value
0  RRIRSRPPRLPRPRPRPTRYPRP  shrunken log2 fold change        -0.198
1  RRIRTRPPRLPRPRPRPSDPPRP  shrunken log2 fold change        -0.429
2  RRIRKRPPRLPRPRPRPWNHPRP  shrunken log2 fold change        -0.172
3  RRIRPRPPRLPRPRPRPCIEPRP  shrunken log2 fold change        -0.291
4  RRIRVRPPRLPRPRPRPAQKPRP  shrunken log2 fold change         0.135

Entry RRIRCRPPRLPRPRPRPCQYPRP : reported shrunken log2 fold change = ?
0.0234

Entry RRIRQRPPRLPRPRPRPRGRPRP : reported shrunken log2 fold change = ?
0.256

Entry RRIRYRPPRLPRPRPRPCVIPRP : reported shrunken log2 fold change = ?
0.0735

Entry RRIRARPPRLPRPRPRPGLSPRP : reported shrunken log2 fold change = ?
0.821
